Where do these numbers come from? They come from patent US20240247080A1.

# Measurement Target: human GLP-1 receptor (human, UniProt P43220 24-463)
# Assay Text: cell-based or functional assay
Non-standard residues stand in square brackets, D forms with d. No end group written: not given here. Aib = CC(C)(N)C(=O)O
The reader will find reported EC50 CreLuc hGLP1R 100% hP values listed item by item below.
Report the figure in nM without appending any unit label.

Look over these answered cases.
Binder	Recorded Number
Y[Aib]EGTFTSDYSI[Aib]LEKQAQ[Aib]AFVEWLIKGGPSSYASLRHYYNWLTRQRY-NH2 (not fully specified (residue 28)) [Compound 126]	3.36
YXEGTFTSDYSIXLDKQAQXAFVEWLIKGGPSSGASLRHYYNWLTRQRY (Aib at 2, 13, 20; K28 side chain: C20DA-gGlu-gGlu-gGlu-gGlu-gGlu-gGlu-eLys; C-terminal NH2) [Compound 128]	3.7

Attention now shifts to the item below.
Input: Determine from records and report EC50 CreLuc hGLP1R 100% hP for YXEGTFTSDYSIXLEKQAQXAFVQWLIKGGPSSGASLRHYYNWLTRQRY (Aib at 2, 13, 20; K28 side chain: C18DA-gGlu-gGlu-gGlu-gGlu-gGlu-OEG-OEG; C-terminal NH2) [Compound 167]
Output: 0.82
